The measurements presented in this section are drawn from patent US20230348369A1.

Target: UniProtKB P43490
Sequence (P43490 whole entry): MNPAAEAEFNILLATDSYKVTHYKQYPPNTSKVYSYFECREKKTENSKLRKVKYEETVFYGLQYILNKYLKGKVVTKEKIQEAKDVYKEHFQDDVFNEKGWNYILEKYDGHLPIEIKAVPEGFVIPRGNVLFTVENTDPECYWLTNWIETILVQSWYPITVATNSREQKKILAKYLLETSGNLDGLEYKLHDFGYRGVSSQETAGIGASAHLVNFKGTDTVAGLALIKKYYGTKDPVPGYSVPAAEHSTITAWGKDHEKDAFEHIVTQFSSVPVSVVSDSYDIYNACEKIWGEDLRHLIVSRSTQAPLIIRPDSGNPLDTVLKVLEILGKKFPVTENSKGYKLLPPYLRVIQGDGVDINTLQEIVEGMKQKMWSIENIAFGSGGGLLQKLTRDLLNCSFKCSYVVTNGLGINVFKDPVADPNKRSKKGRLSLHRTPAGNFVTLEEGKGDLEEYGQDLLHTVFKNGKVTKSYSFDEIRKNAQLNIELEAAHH
Experiment: Human recombinant enzyme assay (NMN fluorescence biochemical assay, activation of NAMPT)
Settings: Table A; human recombinant NAMPT, NMN formation, 60 min
Classify by measured AC1.4 Human: y if it is equal to or exceeds 3 µM, n if it is smaller.

| compound | group.label |
| --- | --- |
| COc1ccc(CNC(=O)NC2CC3(C2)CC(C(=O)N(C)C2CCOC2)C3)cc1 (stereo in doubt) | n |
| COc1ccc(CNC(=O)NC2CC3(C2)CC(C(=O)N2CCN(C)CC2CO)C3)cc1 (stereo not shown) | y |
| COc1ccc(CNC(=O)NC2CC3(C2)CC(C(=O)NC2CC(c4ccncc4)C2)C3)cc1 (stereo not shown) | y |
| COc1ccc(CNC(=O)NC2CC3(C2)CC(C(=O)N2CCN(Cc4cnn(C)c4)CC2)C3)cc1 (stereo not shown) | n |
| O=C(NCCCCCNC(=O)c1ccccn1)NCc1ccc(Cl)cc1 | n |
| COc1ccc(CNC(=O)NC2CC3(C2)CC(C(=O)N2CCCC2c2ccccc2)C3)cc1 (stereo not shown) | y |
| CCc1cccc(C(=O)N2CC3(CC(NC(=O)NCc4ccc(OC)cc4)C3)C2)c1 | n |
| O=C(NCc1ccc(Cl)cc1)NC1CC2(C1)CC(NC(=O)c1ccccc1O)C2 (stereo not shown) | y |
| NC(=O)c1ccc(CNC(=O)NC2CC3(CC(NCc4ccccc4)C3)C2)cc1 (stereo not shown) | y |
| NC(=O)c1ccc(CNC(=O)NC2CC3(C2)CN(C(=O)c2ccc(Cl)cc2)C3)cc1 | n |
| COc1ccc(CNC(=O)NC2CC3(C2)CC(C(=O)N2CCCc4ccc(F)c(F)c42)C3)cc1 (stereo not shown) | y |
| COc1ccc(CNC(=O)NC2CC3(C2)CN(C(=O)c2cccc(N(C)C)c2)C3)cc1 | y |
| COc1ccc(CNC(=O)NC2CC3(C2)CC(C(=O)N[C@@H](C)c2ccccc2)C3)cc1 (stereo partly shown) | y |
| NC(=O)c1ccc(CNC(=O)NC2CC3(C2)CN(C(=O)c2cncc(N4CCCC4)c2)C3)cc1 | n |
| COc1ccc(CNC(=O)NC2CC3(C2)CN(C(=O)Cc2ccccc2F)C3)cc1 | y |
| CC(C)c1cccc(C(=O)N2CC3(CC(NC(=O)NCc4ccc(Cl)cc4)C3)C2)c1 | y |
